From: paper PMC10397247

# TEST_SYSTEM: T1, 4H797-bA
# T1 chain: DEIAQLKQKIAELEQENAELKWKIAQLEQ
# RUN_DESCRIPTION: two-hybrid library CCNG1;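 also: natural log of median RNA to DNA barcode read ratio; higher means stronger binding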
MEASUREMENT_NAME: interaction score

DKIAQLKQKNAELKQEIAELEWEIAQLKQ [4H3010-bA]    -0.928

A: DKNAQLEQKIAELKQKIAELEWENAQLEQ [4H3427-bA]
B: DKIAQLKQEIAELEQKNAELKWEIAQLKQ [4H2618-bA]
C: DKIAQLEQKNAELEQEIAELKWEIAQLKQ [4H2442-bA]
(Q) Give the ascending ranking of the items by reported interaction score. Labels, requested order.
(A) C, A, B
(C: -1.24, A: -0.827, B: 0.0328)
